// IC50 lookup, one value per entry
target: T1, TSLP-His (human, UniProt Q969D9 29-159, limits assumed); assay: HTRF competition: blocking of TSLP-his binding to HEK293-Flag-hTSLPR-IL7Ra cells, IgG1
T1 construct: also called his-tagged TSLP; not shown: His-tag
T1 sequence (Q969D9 29-159 R127A/R130S limits assumed): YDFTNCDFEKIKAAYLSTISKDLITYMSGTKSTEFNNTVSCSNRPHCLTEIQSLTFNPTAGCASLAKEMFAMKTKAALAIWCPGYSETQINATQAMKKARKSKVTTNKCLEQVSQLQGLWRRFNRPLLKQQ

Prompt line: # lookup: IC50 of TSLP-0201 (antibody, V domains shown) VH: QVQLVQSGAEVKKPGSSVKVSCKASGFTFGSYGINWVRQAPGQGLEWMGVIVPLVGVTIYAEKFQGRVTITADTSTSTAYMELSSLRSEDTAVYYCARGQEYFYWYFDLWGQGTLVTVSS VL: QSALTQPPSASGSPGQSVTISCSGSSSDIGGYNRVSWYQQHPGKAPKLMIYDVSKRPSGVPDRFSGSKSGNTASLTVSGLQAEDEADYYCSSYAGTDTFILFGGGTKLTVL
Response line: 0.351 µg/mL

Prompt line: Entry to check: TSLP-03 (antibody, V domains shown, also called parent antibody TSLP-03) VH: EVQLVESGGGLVQPGGSLRLSCAASGFTFSNYDMTWVRQAPGKGLEWVSSITFASSYIYYADSVKGRFTISRDNAKNSLSLQMNSLRAEDTAVYYCTRGGGAYHGGSLDVWGQGVLVTVSS VL: DIVMTQTPLSLSVTPGEPASISCRSSQSLLHINGYTYLHWYLQKPGQSPQLLIYLVSHRASGVPDRFSGSGSDTDFTLKISRVEAEDVGVYYCEQTLQTPYSFGGGTKVEIK
Response line: 0.494 µg/mL

Prompt line: Entry to check: TSLP-0108 (antibody, V domains shown) VH: QVQLQESGPGLVKPSETLSLTCAVSGYSISSGYGWSWIRQPPGKGLEWIGYISYYGSTSYNPSLKSRVTISRDTSKNQFSLKLSSVTAADTAVYYCARTNLLYFDSWGQGTLVTVSS VL: EIVMTQSPATLSLSPGERATLSCRASQSVSNNLAWYQQKPGQAPRLLIYDASSRATGIPARFSGSGSGTDFTLTISSLEPEDFAVYYCQQYSDWPEYSFGQGTKVEIK
Response line: 0.158 µg/mL
